For each entry below, report its pIC50 value.
assayed-target: Signal transducer and activator of transcription 3 (Homo sapiens)
Sequence (P40763 whole entry): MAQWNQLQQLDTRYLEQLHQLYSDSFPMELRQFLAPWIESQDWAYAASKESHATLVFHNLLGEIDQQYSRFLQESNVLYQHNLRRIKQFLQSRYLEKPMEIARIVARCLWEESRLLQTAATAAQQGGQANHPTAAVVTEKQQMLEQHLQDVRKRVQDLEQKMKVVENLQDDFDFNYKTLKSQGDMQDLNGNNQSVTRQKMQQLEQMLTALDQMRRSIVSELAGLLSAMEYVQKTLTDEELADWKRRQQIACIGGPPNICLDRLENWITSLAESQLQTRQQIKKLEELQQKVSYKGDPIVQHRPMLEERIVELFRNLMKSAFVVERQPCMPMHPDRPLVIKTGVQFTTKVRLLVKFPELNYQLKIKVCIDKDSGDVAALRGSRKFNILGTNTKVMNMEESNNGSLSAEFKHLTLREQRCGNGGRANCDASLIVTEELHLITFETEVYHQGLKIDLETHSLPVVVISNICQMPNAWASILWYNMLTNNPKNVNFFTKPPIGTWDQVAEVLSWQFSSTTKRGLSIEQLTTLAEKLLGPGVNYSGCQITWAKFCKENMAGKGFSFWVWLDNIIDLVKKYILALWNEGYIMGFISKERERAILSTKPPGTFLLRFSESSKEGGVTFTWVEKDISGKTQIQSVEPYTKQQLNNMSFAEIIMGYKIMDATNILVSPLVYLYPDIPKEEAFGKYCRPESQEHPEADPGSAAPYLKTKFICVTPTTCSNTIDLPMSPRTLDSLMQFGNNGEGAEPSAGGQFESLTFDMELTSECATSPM
procedure-summary: Inhibition of STAT3 phosphorylation in human MDA-MB-231 cells by sandwich ELISA
Field pIC50 (float): negative decimal logarithm of the concentration in molar.

Incoming: Given `O=C(Nc1ccc([N+](=O)[O-])cc1Cl)c1cc(Cl)ccc1O` , state its recorded pIC50.
Outgoing: 6.68

Incoming: Same again, this time with `COc1cc(NC(=O)c2ccc(Cl)c(S(N)(=O)=O)c2)cc(OC)c1OC`
Outgoing: 6.14

Incoming: Same again, this time with `CC(C)(C)OC(=O)c1ccc(NC(=O)c2cccc(S(N)(=O)=O)c2)cc1`
Outgoing: 6.04

Incoming: Same again, this time with `CC(C)(C)OC(=O)c1ccc(NC(=O)c2ccc(Cl)c(S(N)(=O)=O)c2)cc1`
Outgoing: 6.64
